system: Karpas-422; assay: Cytotoxicity DLBCL; details: read-out: cytotoxicity IC50; Karpas-422, DLBCL GCB
OUTCOME_MEASURE: IC50

In [3]: df
Out[3]:
                            chemical_smiles  outcome_measure  observed_measurement
0  CC(C)NCCCn1c(Sc2cc3c(cc2I)OCO3)nc2c(N)ncnc21             IC50                450 nM

====

system: A204 rhabdomyosarcoma; assay: Cytotoxicity sarcoma; details: read-out: cytotoxic activity (IC50), A204 (rhabdoid?)
pIC50: −log10 of the molar value.
As shown below, each of these molecules has a reported pIC50 value.
OUTCOME_MEASURE: pIC50

>>> df
                                   molecule           study_target  outcome_measure  observed_measurement
0   Cn1nnc2c(C(N)=O)ncn2c1=O [Temozolomide]  A204 rhabdomyosarcoma            pIC50                  3.24
1  CN(C)CCNC(=O)c1cccc(NC(=O)Nc2ccc(N(CCCl)CCCl)cc2)c1 [BO-1055, Ureidomustine]  A204 rhabdomyosarcoma            pIC50                  7.10
2  COc1cccc2c1C(=O)c1c(O)c3c(c(O)c1C2=O)C[C@@](O)(C(=O)CO)C[C@@H]3O[C@H]1C[C@H](N)[C@H](O)[C@H](C)O1 [Doxorubicin]  A204 rhabdomyosarcoma            pIC50                  7.96

====

tested on: SUDHL-4; assay: Cytotoxicity DLBCL; settings: read-out: cytotoxicity IC50; SUDHL-4, DLBCL GCB
pIC50: −log10 of the molar value.
OUTCOME_MEASURE: pIC50

In [3]: df
Out[3]:
                            chemical_smiles  outcome_measure  observed_measurement
0  CC(C)NCCCn1c(Sc2cc3c(cc2I)OCO3)nc2c(N)ncnc21            pIC50                  6.70

====

tested on: Mino
OUTCOME_MEASURE: IC50

>>> print(df.to_string())
                            chemical_smiles  study_target  observed_measurement
0  CNC(=O)c1cc(Oc2ccc(NC(=O)Nc3ccc(Cl)c(C(F)(F)F)c3)cc2)ccn1          Mino                ≥ 8 µM

====

test system: H889; assay: Cytotoxicity SCLC 72 hr alamar blue; type: cell-based, human; details: read-out: IC50
OUTCOME_MEASURE: IC50 (nM)

In [3]: df
Out[3]:
                       compound  reading_unit  observed_measurement
0  N.N.[Cl][Pt][Cl] [Cisplatin]            nM                   410
